Measured values drawn from patent US20210246204A1 for this set.

- EXPERIMENTAL SYSTEM: T1, histidine-tagged human Siglec-7 (NovoProtein) (human, UniProt Q9Y286 19-353)
- T1 construct: Bought protein; also called recombinant human Siglec-7; recombinant Siglec-7; not shown: histidine tag
- T1 sequence (Q9Y286 19-353 limits assumed): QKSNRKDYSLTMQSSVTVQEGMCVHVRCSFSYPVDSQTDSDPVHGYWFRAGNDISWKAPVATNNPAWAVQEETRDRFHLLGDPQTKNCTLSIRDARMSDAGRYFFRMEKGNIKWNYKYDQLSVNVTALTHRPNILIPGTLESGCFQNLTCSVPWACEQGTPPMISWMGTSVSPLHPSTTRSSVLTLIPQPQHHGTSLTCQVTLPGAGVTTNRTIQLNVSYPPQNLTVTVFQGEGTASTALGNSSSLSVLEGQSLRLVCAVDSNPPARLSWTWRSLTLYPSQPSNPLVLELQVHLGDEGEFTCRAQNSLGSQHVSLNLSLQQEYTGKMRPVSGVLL
- ASSAY PROCEDURE: BLI, antibody captured
Each entry below lists one item and its recorded log10(Kd) value.
MEASUREMENT TYPE: log10(Kd) (log10 of the value in nM)

{"BINDER": "S7AB-H8.6 (antibody, V domains shown) VH: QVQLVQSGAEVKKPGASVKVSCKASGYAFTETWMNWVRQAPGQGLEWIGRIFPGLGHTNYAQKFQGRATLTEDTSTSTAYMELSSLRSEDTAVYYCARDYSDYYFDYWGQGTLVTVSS VL: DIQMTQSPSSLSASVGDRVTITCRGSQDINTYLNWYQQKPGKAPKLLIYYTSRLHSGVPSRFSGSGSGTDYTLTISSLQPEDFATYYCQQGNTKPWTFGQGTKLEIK", "log10(Kd)": 0.35}
{"BINDER": "S7AB-H8.36 (antibody, V domains shown) VH: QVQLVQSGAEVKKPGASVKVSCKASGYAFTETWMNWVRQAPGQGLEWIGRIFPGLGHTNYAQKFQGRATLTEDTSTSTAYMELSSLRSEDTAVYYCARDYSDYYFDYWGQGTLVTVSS VL: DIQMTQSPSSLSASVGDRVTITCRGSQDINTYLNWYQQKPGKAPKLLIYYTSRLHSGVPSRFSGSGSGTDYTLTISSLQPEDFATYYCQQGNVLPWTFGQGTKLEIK", "log10(Kd)": -0.22}
{"BINDER": "S7AB-H8.28 (antibody, V domains shown) VH: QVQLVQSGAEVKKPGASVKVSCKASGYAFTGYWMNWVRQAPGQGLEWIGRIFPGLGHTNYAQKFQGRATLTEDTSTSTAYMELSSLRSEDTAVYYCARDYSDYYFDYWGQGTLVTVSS VL: DIQMTQSPSSLSASVGDRVTITCRASQDANTYLNWYQQKPGKAPKLLIYYTSRLHSGVPSRFSGSGSGTDYTLTISSLQPEDFATYYCQQGNLLPWTFGQGTKLEIK", "log10(Kd)": -0.80}
{"BINDER": "S7AB-H8.30 (antibody, V domains shown) VH: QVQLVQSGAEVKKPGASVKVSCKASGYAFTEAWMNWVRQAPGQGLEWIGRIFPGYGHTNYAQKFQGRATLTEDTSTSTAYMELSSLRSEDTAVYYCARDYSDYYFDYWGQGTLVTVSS VL: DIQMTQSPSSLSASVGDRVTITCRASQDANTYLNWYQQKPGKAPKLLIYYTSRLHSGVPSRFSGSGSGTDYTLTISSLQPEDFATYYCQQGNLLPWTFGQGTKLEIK", "log10(Kd)": -0.40}
{"BINDER": "S7AB-H8.20 (antibody, V domains shown) VH: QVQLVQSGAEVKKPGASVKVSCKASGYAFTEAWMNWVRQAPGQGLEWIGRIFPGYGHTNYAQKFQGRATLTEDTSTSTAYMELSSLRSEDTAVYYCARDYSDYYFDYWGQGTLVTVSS VL: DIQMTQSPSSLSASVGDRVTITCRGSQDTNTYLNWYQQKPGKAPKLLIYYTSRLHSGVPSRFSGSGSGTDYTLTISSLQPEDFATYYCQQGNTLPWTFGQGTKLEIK", "log10(Kd)": 0.26}
